- target-system: T1, human TROP2 protein (Sino Biological, #10428-H08H) (human, UniProt P09758 27-274)
- T1 construct: bought protein; also called human Trop2 protein antigen (His tag); not shown: His tag
- T1 sequence (looked up): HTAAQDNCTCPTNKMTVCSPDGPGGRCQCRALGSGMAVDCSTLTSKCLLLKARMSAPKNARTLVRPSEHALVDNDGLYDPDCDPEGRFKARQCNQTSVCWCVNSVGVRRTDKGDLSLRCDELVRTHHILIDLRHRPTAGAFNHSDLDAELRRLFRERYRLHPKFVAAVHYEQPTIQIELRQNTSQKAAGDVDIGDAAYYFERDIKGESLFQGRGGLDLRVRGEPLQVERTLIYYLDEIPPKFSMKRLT
- measurement-protocol: BLI, Octet RED96, AHC sensor
result-type: Response
Just the number, please, no unit attached.

Check out these entries, answers already filled in.
Quick one: Response for PR001134 (antibody, human IgG1, kappa, V domains shown, fully human IgG1/kappa; also called antibody No. (6)) VH: QVQLVESGGGVVQPGRSLRVSCIASGFFFSSYGMHWVRQAPGKGLEWVAVIWYDGSNEDYVDSVKGRFTISRDNSKNTLYLQMNSLRGEDTAMYYCARGGYNSGWWAFDIWGQGTMVTVSS VL: DIQMTQSPSSLSASVGDRVTITCRASQGISHFLAWYQQKPGKVPKLLIYAASTLQSGVPSRFSGSGSGTDFTLTISSLQPEDVATYYCQKFNSAPLTFGGGTKVEIKR ?
0.354

Similarly, PR001154 (antibody, human IgG1, kappa, V domains shown, fully human IgG1/kappa; also called antibody No. (17)) VH: QVQLVESGGGVVQPGRSLRLSCEASGFTFSHYGMHWVRQAPGKGLEWVAVIWYDGIKKYYIESVKGRFIISRDNSKNTLYLQMNRLRAEDTAVYYCARDGGFGELNYYGLDVWGQGTTVTVSS VL: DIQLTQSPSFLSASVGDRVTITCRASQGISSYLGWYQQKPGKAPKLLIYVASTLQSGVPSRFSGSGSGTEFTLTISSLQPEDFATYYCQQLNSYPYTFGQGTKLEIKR ?
0.41

---
Quick one: Response for PR001142 (antibody, human IgG1, kappa, V domains shown, fully human IgG1/kappa; also called antibody No. (9)) VH: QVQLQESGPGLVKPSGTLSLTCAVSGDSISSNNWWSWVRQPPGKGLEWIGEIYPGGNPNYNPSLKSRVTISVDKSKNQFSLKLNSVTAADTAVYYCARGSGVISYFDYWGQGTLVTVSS VL: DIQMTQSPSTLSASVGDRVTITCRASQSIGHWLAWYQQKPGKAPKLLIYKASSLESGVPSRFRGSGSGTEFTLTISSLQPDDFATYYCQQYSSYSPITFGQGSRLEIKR ?
0.39
